Entries annotated with measured activation at 10 µM
target: human GLP1R (Homo sapiens, UniProt P43220); construct: expressed in transfected cells; host or cells: CHO cells (ATCC), transient transfection with pCMV-human GLP1R; experiment: Human GLP-1 receptor transfected cell assay (MRE/CRE-luciferase reporter gene, agonist activity); type: cell-based; settings: 6 h; conc. 10 μM; percentage of the activity of the control; read-out: Agonist Activity
Sequence (P43220 24-463): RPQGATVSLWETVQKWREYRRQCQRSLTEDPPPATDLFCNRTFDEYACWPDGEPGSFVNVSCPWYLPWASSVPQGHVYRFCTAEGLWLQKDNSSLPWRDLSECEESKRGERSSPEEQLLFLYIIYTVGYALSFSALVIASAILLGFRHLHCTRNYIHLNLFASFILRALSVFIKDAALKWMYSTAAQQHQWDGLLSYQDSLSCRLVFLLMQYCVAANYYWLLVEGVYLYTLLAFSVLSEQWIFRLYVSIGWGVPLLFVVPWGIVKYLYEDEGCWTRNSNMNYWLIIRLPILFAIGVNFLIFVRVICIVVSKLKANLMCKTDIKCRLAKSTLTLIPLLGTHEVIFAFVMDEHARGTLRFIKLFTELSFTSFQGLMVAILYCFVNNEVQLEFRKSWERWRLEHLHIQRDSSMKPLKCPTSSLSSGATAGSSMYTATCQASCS
readout: activation at 10 µM

>>> observed_measurement("CC(C)(C)OC(=O)Nc1ccc(-c2nc(-c3ccc(CC(NC(=O)Nc4ccc(C(F)(F)F)cc4)C(=O)O)cc3F)no2)cc1 (stereo not drawn) [Compound 13H]")
"> 60%"
>>> observed_measurement("CC(C)(C)OC(=O)Nc1ccc(-c2nc(-c3ccc(CC(NC(=O)Nc4ccc(-c5ccc(OC(F)(F)F)cc5)cn4)C(=O)O)cc3F)no2)cc1 (stereo not drawn) [Compound 13N]")
"> 60%"
>>> observed_measurement("CC(C)(C)OC(=O)Nc1ccc(-c2nc(-c3ccc(CC(NC(=O)c4ccc(-c5ccccn5)s4)C(=O)O)cc3F)no2)cc1 (stereo not drawn) [Compound 13B]")
"> 60%"
>>> observed_measurement("CC(C)(C)OC(=O)Nc1ccc(-c2nc(-c3ccc(CC(NS(=O)(=O)c4ccc([N+](=O)[O-])cc4)C(=O)O)cc3F)no2)cc1 (stereo not drawn) [Compound 11H]")
"40 to 60%"
>>> observed_measurement("Cc1ccc(-c2cncc(C(=O)NC(Cc3ccc(-c4noc(-c5ccc(NC(=O)OC(C)(C)C)cc5)n4)c(F)c3)C(=O)O)c2)cc1 (stereo not drawn) [Compound 14B]")
"> 60%"
>>> observed_measurement("Cc1ccc(-c2cc(C(=O)NC(Cc3ccc(-c4noc(-c5ccc(NC(=O)OC(C)(C)C)cc5)n4)c(F)c3)C(=O)O)ccn2)cc1 (stereo not drawn) [Compound 14C]")
"> 60%"
>>> observed_measurement("CC(C)(C)OC(=O)Nc1ccc(-c2nc(-c3ccc(CC(NS(=O)(=O)N4CCN(C(=O)OC(C)(C)C)CC4)C(=O)O)cc3F)no2)cc1 (stereo not drawn) [Compound 11W]")
"40 to 60%"
>>> observed_measurement("CC(C)(C)OC(=O)Nc1ccc(-c2nc(-c3ccc(CC(NC(=O)N4CCN(c5cccc(Cl)c5)CC4)C(=O)O)cc3F)no2)cc1 (stereo not drawn) [Compound 12C]")
"> 60%"
>>> observed_measurement("CC(C)(C)OC(=O)Nc1ccc(-c2nc(-c3ccc(CC(NC(=O)c4cccc(N5CCCCC5)c4)C(=O)O)cc3F)no2)cc1 (stereo not drawn) [Compound 11Y]")
"20 to 40%"
>>> observed_measurement("CC(C)(C)OC(=O)Nc1ccc(-c2nc(-c3ccc(CC(NS(=O)(=O)NCc4ccccc4)C(=O)O)cc3F)no2)cc1 (stereo not drawn) [Compound 11Z]")
"40 to 60%"
>>> observed_measurement("Cc1ccc(-c2ccc(C(=O)NC(Cc3ccc(-c4noc(-c5ccc(NC(=O)OC(C)(C)C)c(C)c5)n4)c(F)c3)C(=O)O)o2)cc1 (stereo not drawn) [Compound 14D]")
"40 to 60%"
>>> observed_measurement("CC(C)c1ccc(S(=O)(=O)NC(Cc2ccc(-c3noc(-c4ccc(NC(=O)OC(C)(C)C)cc4)n3)c(F)c2)C(=O)O)cc1 (stereo not drawn) [Compound 11C]")
"20 to 40%"
>>> observed_measurement("Cc1cccc(-c2ccc(NC(=O)NC(Cc3ccc(-c4noc(-c5ccc(NC(=O)OC(C)(C)C)cc5)n4)c(F)c3)C(=O)O)nc2)c1 (stereo not drawn) [Compound 13L]")
"> 60%"
>>> observed_measurement("CC(C)(C)OC(=O)Nc1ccc(-c2nc(-c3ccc(CC(NC(=O)Nc4cc(-c5ccc(F)cc5)n[nH]4)C(=O)O)cc3F)no2)cc1 (stereo not drawn) [Compound 12I]")
"> 60%"
>>> observed_measurement("CC(C)(C)OC(=O)Nc1ccc(-c2nc(-c3ccc(CC(NC(=O)Nc4ccccc4)C(=O)O)cc3F)no2)cc1 (stereo not drawn) [Compound 13D]")
"40 to 60%"
